Catalogue of interaction score readings, one per entry.
- tgt: T1, 4H454-AA
- T1 chain: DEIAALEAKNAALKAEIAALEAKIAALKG
- assay_name: two-hybrid library CCmax;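 note: natural log of median RNA to DNA barcode read ratio; higher means stronger binding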
- experimental_context: mean of both orientations
measured_metric: interaction score

INSERT INTO assay_data (binder, measured_metric, measured_result) VALUES
  ('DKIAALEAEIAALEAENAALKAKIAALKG [4H2078-AA]', 'interaction score', -0.599),
  ('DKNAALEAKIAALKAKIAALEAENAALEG [4H3427-AA]', 'interaction score', -0.567),
  ('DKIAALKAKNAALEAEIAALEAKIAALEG [4H2949-AA]', 'interaction score', 1.98),
  ('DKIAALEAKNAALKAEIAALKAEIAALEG [4H2505-AA]', 'interaction score', 2.21),
  ('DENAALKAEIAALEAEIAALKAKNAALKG [4H1552-AA]', 'interaction score', -0.754),
  ('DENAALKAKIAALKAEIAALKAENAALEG [4H1867-AA]', 'interaction score', -0.172),
  ('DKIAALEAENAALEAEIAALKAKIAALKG [4H2190-AA]', 'interaction score', 1.72);
